Target: Env of HIV-1 strain 3016.v5.c45 (HIV-1)
Test: cell-based or functional assay

| BINDER | REPORTED_RELATION | neutralization IC50 / µg/mL |
| --- | --- | --- |
| γ46κ5 (antibody, V domains shown) VH: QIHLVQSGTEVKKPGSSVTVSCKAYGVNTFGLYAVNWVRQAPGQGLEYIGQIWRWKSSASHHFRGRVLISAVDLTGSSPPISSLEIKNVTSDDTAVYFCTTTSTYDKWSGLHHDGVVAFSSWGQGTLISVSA VL: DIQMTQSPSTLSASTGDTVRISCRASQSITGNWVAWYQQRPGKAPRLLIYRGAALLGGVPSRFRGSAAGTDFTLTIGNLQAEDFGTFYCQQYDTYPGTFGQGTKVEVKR | = | 0.111 |
| γ8κ11 (antibody, V domains shown) VH: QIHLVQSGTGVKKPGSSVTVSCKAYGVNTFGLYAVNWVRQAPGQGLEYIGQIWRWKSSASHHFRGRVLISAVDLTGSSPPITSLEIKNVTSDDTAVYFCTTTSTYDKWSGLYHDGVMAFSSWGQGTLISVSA VL: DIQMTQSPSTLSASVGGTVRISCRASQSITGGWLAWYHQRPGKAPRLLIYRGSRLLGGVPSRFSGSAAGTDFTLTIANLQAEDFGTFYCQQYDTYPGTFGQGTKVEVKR | = | 2.46 |
| γ59κ3 (antibody, V domains shown) VH: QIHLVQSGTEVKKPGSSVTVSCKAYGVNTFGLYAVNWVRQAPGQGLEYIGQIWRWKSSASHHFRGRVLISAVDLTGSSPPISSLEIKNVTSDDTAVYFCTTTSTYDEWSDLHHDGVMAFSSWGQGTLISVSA VL: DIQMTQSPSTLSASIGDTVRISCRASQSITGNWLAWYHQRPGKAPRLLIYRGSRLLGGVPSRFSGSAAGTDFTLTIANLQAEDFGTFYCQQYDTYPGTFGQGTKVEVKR | > | 15 |
